test: Cytotoxicity against human KB cells after 3 days by sulforhodamine B assay; assay type: cell-based; conditions: read-out: ED50
Define the label as yes (1) when CC50 at 72 h is strictly less than 6 µg/mL and as no (0) in all remaining cases.

| MOLECULE | CLASS_LABEL |
| --- | --- |
| COc1ccc2cc1Oc1ccc(cc1)C[C@H]1c3c(cc4c(c3Oc3cc5c(cc3OC)CCN[C@@H]5C2)OCO4)CCN1C | yes (1) |
| COc1ccc2cc1Oc1ccc(cc1)C[C@H]1c3c(cc(OC)c4c3Oc3cc5c(cc3O4)CCN=C5C2)CCN1C | yes (1) |
| COc1ccc2cc1Oc1ccc(cc1)C[C@H]1c3cc(c(OC)cc3CCN1C)Oc1c(O)c(OC)cc3c1[C@@H](C2)N(C)CC3 | no (0) |
| COc1ccc2cc1Oc1ccc(cc1)C[C@H]1c3cc(c(OC)cc3CCN1C)Oc1c(OC)c(OC)cc3c1[C@@H](C2)NCC3 | no (0) |
| C=C[C@H]1CN2CC[C@H]1C[C@H]2[C@H](O)c1ccnc2ccc(OC)cc12 | no (0) |
| COc1ccc2cc1Oc1ccc(cc1)C[C@H]1c3c(cc(OC)c(O)c3Oc3cc4c(cc3OC)CCN[C@@H]4C2)CCN1C | yes (1) |
| CCN(CC)CCCC(C)Nc1ccnc2cc(Cl)ccc12 (configuration not stated) | no (0) |

Origin of values: ChEMBL document CHEMBL1147331
